- System: Staphylococcus aureus
- PROTOCOL NOTES: Antibacterial activity against methicillin resistant Staphylococcus aureus ATCC49025 assessed as reduction in microbial growth after 16 to 18 hrs by microbroth dilution method
- Assay type: functional
- CONDITION SUMMARY: time 16-18 hrs
READOUT LABEL: MIC (µg/mL)
One number for each entry, in µg/mL.

Below are worked cases with known answers.
INSERT INTO measurements (compound, uom, numeric_value) VALUES
  ('CC(C)=CCc1c(OC2CCC2)cc(/C=C/c2ccc(C(F)(F)F)cc2)c(C(=O)O)c1O', 'µg/mL', 1),
  ('CC(C)=CCc1c(OC(C)C)cc(/C=C/c2ccc(F)cc2)c(C(=O)O)c1O', 'µg/mL', 4),
  ('CC(C)=CCc1c(OCCF)cc(/C=C/c2ccc(F)cc2)c(C(=O)O)c1O', 'µg/mL', 4);

Batch: MIC for all items listed.
1. CC(C)=CCc1c(OCc2ccccc2)cc(/C=C/c2ccc(F)cc2)c(C(=O)O)c1O
2. CCC(CC)Oc1cc(/C=C/c2ccc(C(F)(F)F)cc2)c(C(=O)O)c(O)c1CC=C(C)C
3. CC(C)=CCc1c(OCCCF)cc(/C=C/c2ccc(F)cc2)c(C(=O)O)c1O
4. CC(C)=CCc1c(OCCCCF)cc(/C=C/c2ccc(C(F)(F)F)cc2)c(C(=O)O)c1O
5. CCC(C)Oc1cc(/C=C/c2ccc(F)cc2)c(C(=O)O)c(O)c1CC=C(C)C (stereo not drawn)

1: 4; 2: 2; 3: 4; 4: 4; 5: 4

* * *

For each of the compounds below, state its MIC.
- Test system: Staphylococcus aureus
- PROTOCOL NOTES: Antibacterial activity against methicillin resistant Staphylococcus aureus ATCC513045 assessed as reduction in microbial growth after 16 to 18 hrs by microbroth dilution method
- Assay type: functional
- CONDITION SUMMARY: time 16-18 hrs
Answers without a unit are incomplete; give the number and then its unit.

INSERT INTO results (compound, result) VALUES
  ('CC(C)=CCc1c(OCCC(F)(F)F)cc(/C=C/c2ccc(F)cc2)c(C(=O)O)c1O', '2 µg/mL');

Provide reported MIC for each item, in the same order as listed.
1. CCOc1cc(/C=C/c2ccc(F)cc2)c(C(=O)O)c(O)c1CC=C(C)C
2. CC(C)=CCc1c(OCCCC(F)(F)F)cc(/C=C/c2ccc(F)cc2)c(C(=O)O)c1O
3. CC(C)=CCc1c(OC2CCCCCC2)cc(/C=C/c2ccc(F)cc2)c(C(=O)O)c1O

1. 4 µg/mL
2. 4 µg/mL
3. 2 µg/mL

For every item below, please supply its MIC.
1. CC(C)=CCc1c(OCc2ccccc2)cc(/C=C/c2ccc(F)cc2)c(C(=O)O)c1O
2. CC(C)=CCc1c(OCc2ccccc2)cc(/C=C/c2ccc(C(F)(F)F)cc2)c(C(=O)O)c1O
3. CC(C)=CCc1c(OCCCF)cc(/C=C/c2ccc(F)cc2)c(C(=O)O)c1O
4. CC(C)=CCc1c(OC2CCCC2)cc(/C=C/c2ccc(F)cc2)c(C(=O)O)c1O
5. CCOc1cc(/C=C/c2ccc(C(F)(F)F)cc2)c(C(=O)O)c(O)c1CC=C(C)C
6. CCC(C)Oc1cc(/C=C/c2ccc(C(F)(F)F)cc2)c(C(=O)O)c(O)c1CC=C(C)C (stereo unspecified)

1: 4 µg/mL; 2: 2 µg/mL; 3: 4 µg/mL; 4: 2 µg/mL; 5: 2 µg/mL; 6: 2 µg/mL

I would be grateful if you could provide MIC for each of the following entries.
1. COc1cc(/C=C/c2ccccc2)c(C(=O)O)c(O)c1CC=C(C)C
2. CC(C)=CCc1c(OCC(F)(F)F)cc(/C=C/c2ccc(C(F)(F)F)cc2)c(C(=O)O)c1O
3. CC(C)=CCc1c(OC2CCCCCC2)cc(/C=C/c2ccc(C(F)(F)F)cc2)c(C(=O)O)c1O
4. CCC(CC)Oc1cc(/C=C/c2ccc(C(F)(F)F)cc2)c(C(=O)O)c(O)c1CC=C(C)C
5. CC(C)=CCc1c(OC2CCCCC2)cc(/C=C/c2ccc(C(F)(F)F)cc2)c(C(=O)O)c1O
6. CC(C)=CCc1c(OC(C)C)cc(/C=C/c2ccc(C(F)(F)F)cc2)c(C(=O)O)c1O

["16 µg/mL", "2 µg/mL", "2 µg/mL", "1 µg/mL", "2 µg/mL", "2 µg/mL"]

* * *

- System: Staphylococcus aureus
- PROTOCOL NOTES: Antibacterial activity against methicillin resistant Staphylococcus aureus ATCC 43300 assessed as reduction in microbial growth after 16 to 18 hrs by microbroth dilution method
- Type: functional
- CONDITION SUMMARY: time 16-18 hrs
Would you kindly list MIC for each of these molecules?
One number for each entry, in µg/mL.

INSERT INTO assay_data (molecule, readout_label, numeric_value) VALUES
  ('CC(C)=CCc1c(OCC(F)(F)F)cc(/C=C/c2ccc(F)cc2)c(C(=O)O)c1O', 'MIC', 2),
  ('CCCC(CC)Oc1cc(/C=C/c2ccc(F)cc2)c(C(=O)O)c(O)c1CC=C(C)C (stereo unspecified)', 'MIC', 1),
  ('CC(C)=CCc1c(OCCC(F)(F)F)cc(/C=C/c2ccc(F)cc2)c(C(=O)O)c1O', 'MIC', 4),
  ('CC(C)=CCc1c(OCCCC(F)(F)F)cc(/C=C/c2ccc(F)cc2)c(C(=O)O)c1O', 'MIC', 4),
  ('CCOc1cc(/C=C/c2ccc(C(F)(F)F)cc2)c(C(=O)O)c(O)c1CC=C(C)C', 'MIC', 1),
  ('CC(C)=CCc1c(OCCCCF)cc(/C=C/c2ccc(C(F)(F)F)cc2)c(C(=O)O)c1O', 'MIC', 2);

For each listed entry, give its MIC.
1. CC(C)=CCc1c(OC2CCCCC2)cc(/C=C/c2ccc(F)cc2)c(C(=O)O)c1O
2. CCC(CC)Oc1cc(/C=C/c2ccc(F)cc2)c(C(=O)O)c(O)c1CC=C(C)C
3. CC(C)=CCc1c(OC2CCCCCC2)cc(/C=C/c2ccc(C(F)(F)F)cc2)c(C(=O)O)c1O

1. 2
2. 2
3. 1

I have 8 molecules here; please give me MIC for each one.
1. CC(C)=CCc1c(OCC(F)(F)F)cc(/C=C/c2ccc(C(F)(F)F)cc2)c(C(=O)O)c1O
2. CC(C)=CCc1c(OC2CCCCCC2)cc(/C=C/c2ccc(F)cc2)c(C(=O)O)c1O
3. CC(C)=CCc1c(OCC2CC2)cc(/C=C/c2ccc(F)cc2)c(C(=O)O)c1O
4. CC(C)=CCc1c(OC(C)C)cc(/C=C/c2ccc(F)cc2)c(C(=O)O)c1O
5. CCC(CC)Oc1cc(/C=C/c2ccc(C(F)(F)F)cc2)c(C(=O)O)c(O)c1CC=C(C)C
6. CC(C)=CCc1c(OCCCC(F)(F)F)cc(/C=C/c2ccc(C(F)(F)F)cc2)c(C(=O)O)c1O
7. CC(C)=CCc1c(OC2CCCC2)cc(/C=C/c2ccc(C(F)(F)F)cc2)c(C(=O)O)c1O
8. CC(C)=CCc1c(OCCCF)cc(/C=C/c2ccc(C(F)(F)F)cc2)c(C(=O)O)c1O

1: 2; 2: 1; 3: 2; 4: 4; 5: 2; 6: 1; 7: 2; 8: 2

Please look at the items below and tell me MIC for each one, in order.
1. CCCC(CC)Oc1cc(/C=C/c2ccc(C(F)(F)F)cc2)c(C(=O)O)c(O)c1CC=C(C)C (stereo unspecified)
2. CC(C)=CCc1c(OCCCCF)cc(/C=C/c2ccc(F)cc2)c(C(=O)O)c1O
3. CC(C)=CCc1c(OCc2ccccc2)cc(/C=C/c2ccc(C(F)(F)F)cc2)c(C(=O)O)c1O

1: 2; 2: 4; 3: 2

Where do these numbers come from? They come from ChEMBL document CHEMBL4828717.
